- study system: Brd4 bromodomain 1 (BRD4(1)) (Homo sapiens, UniProt O60885)
- protocol details: Inhibition of tetra-acetylated histone H4 binding to Brd4 bromodomain 1 (TR-FRET)
- cond: tetra-acetylated histone H4 peptide, first bromodomain of Brd4
endpoint label: IC50

[
  {
    "compound": "CC(=O)Nc1cc(-c2c(C)noc2C)cc2c1nc(N1CCC1)n2Cc1ccccc1 [compound 130]",
    "IC50": "≤ 300 nM"
  },
  {
    "compound": "Cc1noc(C)c1-c1cc(N)c2ncn(Cc3ccccc3)c2c1 [Example Compound 7]",
    "IC50": "≤ 300 nM"
  },
  {
    "compound": "CCc1nc2ncc(-c3c(C)noc3C)cc2n1Cc1ccccc1 [compound 128]",
    "IC50": "≤ 300 nM"
  }
]

QUERY: What does the data say about its IC50? Entry: Cc1noc(C)c1-c1cc(C(N)=O)c2[nH]c(=O)n(Cc3ccccc3)c2c1 [Example Compound 21]
RESULT: ≤ 300 nM

QUERY: Form field: reported IC50 of CC(=O)Nc1cc(-c2ccnn2C)cc2c1n(C)c(=O)n2Cc1ccccc1 [compound 204]
RESULT: 300 to 3000 nM

----------
- study system: Brd4 bromodomain 1 (BRD4(1)) (Homo sapiens)
- Construct: made in house; host or cells: E. coli BL21(DE3)
- protocol details: Inhibition of tetra-acetylated histone H4 binding to Brd4 bromodomain 1 (TR-FRET)
- cond: tetra-acetylated histone H4 peptide, first bromodomain of Brd4
pIC50: −log10 of the molar value.
Entries and their pIC50 values follow.

Look over these answered cases.
[
  {
    "query smiles": "CC(=O)c1cn(Cc2ccccc2)c2cc(-c3c(C)noc3C)cnc12",
    "endpoint label": "pIC50",
    "measured value": "≥ 6.52"
  },
  {
    "query smiles": "Cc1noc(C)c1-c1cnc2nc(C)n(CC3CCCC3)c2c1",
    "endpoint label": "pIC50",
    "measured value": "≥ 6.52"
  }
]

QUERY: Any idea what pIC50 was measured for COc1c(-c2c(C)noc2C)ccc2nc(C(F)(F)F)n(Cc3ccccc3)c12 ?
RESULT: 5.52 to 6.52

----------
- System: hIL-17 mRNA
- protocol details: Inhibition of hIL-17 mRNA transcription in OKT3-stimulated peripheral blood mononuclear cells
- Assay type: cell-based
- cond: PBMC, human peripheral blood mononuclear cells, OKT3 antibody, 6 h, read-out: IL-17 activity
pIC50: −log10 of the molar value.
Each item that follows carries a reported pIC50.

QUERY: What is its pIC50 for hIL-17 mRNA? Entry: Cc1noc(C)c1-c1cnc2[nH]c(=O)n(C(C)c3ccccc3)c2c1 (stereo not shown)
RESULT: ≥ 6.52

QUERY: Report pIC50 for Cc1noc(C)c1-c1cnc2[nH]c(=O)n(Cc3ccccc3)c2c1 tested on hIL-17 mRNA.
RESULT: ≥ 6.52

----------
- Tested on: hIL-6 mRNA
- protocol details: Inhibition of hIL-6 mRNA transcription in LPS-stimulated U937 cells
- Format: cell-based
- cond: Homo sapiens, U-937; PMA-differentiated U937 cells, 1 h pretreatment, 1 ug/mL LPS stimulation, 3 h; read-out: IL-6 activity (Inhibition of hIL-6 mRNA Transcription)
endpoint label: IC50

[
  {
    "compound": "Cc1noc(C)c1-c1cnc2nc(C)n(Cc3ccc(C#N)s3)c2c1 [compound 78]",
    "study system": "hIL-6 mRNA",
    "endpoint label": "IC50",
    "measured value": "0.3 to 3 µM"
  },
  {
    "compound": "Cc1noc(C)c1-c1cnc2c(C#N)cn(Cc3ccccc3)c2c1 [compound 88]",
    "study system": "hIL-6 mRNA",
    "endpoint label": "IC50",
    "measured value": "≤ 0.3 µM"
  },
  {
    "compound": "Cc1noc(C)c1-c1cc2c(ccn2Cc2ccccc2)nc1OC=O [Example Compound 37]",
    "study system": "hIL-6 mRNA",
    "endpoint label": "IC50",
    "measured value": "3 to 30 µM"
  },
  {
    "compound": "Cc1noc(C)c1-c1cnc2c([N+](=O)[O-])cn(Cc3ccccc3)c2c1 [Example Compound 39]",
    "study system": "hIL-6 mRNA",
    "endpoint label": "IC50",
    "measured value": "0.3 to 3 µM"
  },
  {
    "compound": "Cc1noc(C)c1-c1cnc2ccn(Cc3ccc(F)cc3)c2n1 [Example Compound 50]",
    "study system": "hIL-6 mRNA",
    "endpoint label": "IC50",
    "measured value": "0.3 to 3 µM"
  }
]

QUERY: Which value of IC50 has been reported for Cc1noc(C)c1-c1cnc2cnn(Cc3ccccc3)c2c1 [compound 92] in the records?
RESULT: 0.3 to 3 µM

QUERY: Entry Cc1noc(C)c1-c1cnc2c(Br)cn(Cc3ccccc3)c2c1 [Example Compound 34] has what IC50?
RESULT: 0.3 to 3 µM

QUERY: What value of measured IC50 is listed for Cc1noc(C)c1-c1ccc2[nH]c(=O)n(Cc3ccccc3)c2n1 [Example Compound 2] ?
RESULT: 0.3 to 3 µM

QUERY: Consider the compound Cc1nc2c(N)cc(-c3ccnn3C)cc2n1Cc1ccccc1 [compound 94] and give its measured IC50.
RESULT: 0.3 to 3 µM

QUERY: Need IC50, item Cc1noc(C)c1-c1cnc2nc(N3CCC3)n(CC3CCC3)c2c1 [compound 211]
RESULT: ≤ 0.3 µM

QUERY: Looking for the measured IC50 of Cc1noc(C)c1-c1cnc2c(c1)ncn2Cc1ccc(F)cc1 [Example Compound 44] , can you help?
RESULT: 0.3 to 3 µM

QUERY: Given Cc1noc(C)c1-c1cnc2nc(N3CCOCC3)n(Cc3ccccc3)c2c1 [compound 114] , state its recorded IC50.
RESULT: 0.3 to 3 µM

QUERY: Given the entry Cc1noc(C)c1-c1cc(N)c2[nH]c(=O)n(C(C)c3ccccc3)c2c1 (centres unmarked) [compound 115] , report its measured IC50.
RESULT: ≤ 0.3 µM

QUERY: Reported IC50, compound Cc1noc(C)c1-c1cnc2nc(C3CCOCC3)n(Cc3ccccc3)c2c1 [compound 220] : ____
RESULT: 0.3 to 3 µM

QUERY: What value of measured IC50 is listed for COc1ccc(Cn2c(C)nc3ncc(-c4c(C)noc4C)cc32)cc1 [Example Compound 62] ?
RESULT: 0.3 to 3 µM

----------
Each item that follows carries a reported IC50.
- study system: Brd4 bromodomain 1 (BRD4(1)) (Homo sapiens)
- protocol details: Inhibition of tetra-acetylated histone H4 binding to Brd4 bromodomain 1 (TR-FRET)
- cond: tetra-acetylated histone H4 peptide, first bromodomain of Brd4

[
  {
    "compound": "COc1ccc(Cn2c(=O)[nH]c3c([N+](=O)[O-])cc(-c4c(C)noc4C)cc32)cc1",
    "IC50": "≤ 300 nM"
  },
  {
    "compound": "Cc1noc(C)c1-c1cc(N)c2nc(N3CCOCC3)n(Cc3ccccc3)c2c1",
    "IC50": "≤ 300 nM"
  },
  {
    "compound": "Cc1noc(C)c1-c1cc(F)c2[nH]c(=O)n(Cc3ccccc3)c2c1",
    "IC50": "≤ 300 nM"
  },
  {
    "compound": "Cc1noc(C)c1-c1cc([N+](=O)[O-])c2nc(C)n([C@H](C)c3ccccc3)c2c1",
    "IC50": "≤ 300 nM"
  },
  {
    "compound": "CCn1c(=O)n(Cc2ccccc2)c2cc(-c3c(C)noc3C)ccc21",
    "IC50": "≤ 300 nM"
  }
]

QUERY: Give its IC50 value. Item: Cc1noc(C)c1-c1cnc2nc(NC3CCOCC3)n(CC3CCCC3)c2c1
RESULT: ≤ 300 nM

QUERY: Request the reported IC50 associated with Cc1noc(C)c1-c1cc(Br)c2c(c1)nc(C)n2CCCc1ccccc1
RESULT: 3000 to 30000 nM

----------
- study system: Brd4 bromodomain 1 (BRD4(1)) (Homo sapiens)
- protocol details: Inhibition of tetra-acetylated histone H4 binding to Brd4 bromodomain 1 (TR-FRET)
- cond: tetra-acetylated histone H4 peptide, first bromodomain of Brd4
- Description: Proteins were cloned and overexpressed with a N-terminal 6× His tag, then purified by nickel affinity followed by size exclusion chromatography. […] Binding of tetra-acetylated histone H4 and BET bromodomains was confirmed by a Time Resolved Fluorescence Resonance Energy Transfer (TR-FRET) method. […] After a 2-h incubation at room temperature, the fluorescence by FRET was measured at 665 and 620 nm by a SynergyH4 plate reader (Biotek). […] IC50 values were determined from a dose response curve.
endpoint label: IC50

[
  {
    "query smiles": "CC(=O)Nc1cc(-c2c(C)noc2C)cc2c1nc(C)n2Cc1ccccc1",
    "IC50": "≤ 300 nM"
  }
]

QUERY: Recorded IC50 for Cc1nc2ncc(-c3ccnn3C)cc2n1Cc1ccccc1 with Brd4 bromodomain 1 (BRD4(1)) (Homo sapiens), please?
RESULT: ≤ 300 nM

QUERY: Give IC50 (Brd4 bromodomain 1 (BRD4(1)) (Homo sapiens)) of the following compound: CCS(=O)(=O)Nc1cc(-c2c(C)noc2C)cc2c1nc(C)n2Cc1ccccc1
RESULT: ≤ 300 nM

QUERY: For the record Cc1noc(C)c1-c1cc([N+](=O)[O-])c2nc(N3CCN(C)CC3)n(Cc3ccccc3)c2c1 , what value of IC50 is listed for Brd4 bromodomain 1 (BRD4(1)) (Homo sapiens)?
RESULT: ≤ 300 nM

QUERY: Enter reported IC50 observed with Brd4 bromodomain 1 (BRD4(1)) (Homo sapiens) for Cc1noc(C)c1-c1cc(N)c2[nH]c(=O)n(Cc3ccccc3)c2c1
RESULT: ≤ 300 nM

QUERY: Find the measured IC50: item Cc1noc(C)c1-c1ccc2ncn(Cc3ccccc3)c2n1 , target or system Brd4 bromodomain 1 (BRD4(1)) (Homo sapiens).
RESULT: 300 to 3000 nM

QUERY: Short answer please: IC50, Brd4 bromodomain 1 (BRD4(1)) (Homo sapiens), entry Cc1noc(C)c1-c1cnc2nc(Oc3cccnc3)n(Cc3ccccc3)c2c1
RESULT: ≤ 300 nM

QUERY: Could you share what IC50 was measured for Cc1noc(C)c1-c1cnc2nc(C)n(Cc3ccccc3)c2c1C , tested on Brd4 bromodomain 1 (BRD4(1)) (Homo sapiens)?
RESULT: ≤ 300 nM
